# IC50 (M); hIL36β; IL-8 production annotations
- Assayed target: T1, IL-36R naturally expressed on OVCAR8 cells and on normal human epidermal keratinocytes (NHK cells) (human, UniProt Q9HB29 20-575)
- T1 sequence (looked up): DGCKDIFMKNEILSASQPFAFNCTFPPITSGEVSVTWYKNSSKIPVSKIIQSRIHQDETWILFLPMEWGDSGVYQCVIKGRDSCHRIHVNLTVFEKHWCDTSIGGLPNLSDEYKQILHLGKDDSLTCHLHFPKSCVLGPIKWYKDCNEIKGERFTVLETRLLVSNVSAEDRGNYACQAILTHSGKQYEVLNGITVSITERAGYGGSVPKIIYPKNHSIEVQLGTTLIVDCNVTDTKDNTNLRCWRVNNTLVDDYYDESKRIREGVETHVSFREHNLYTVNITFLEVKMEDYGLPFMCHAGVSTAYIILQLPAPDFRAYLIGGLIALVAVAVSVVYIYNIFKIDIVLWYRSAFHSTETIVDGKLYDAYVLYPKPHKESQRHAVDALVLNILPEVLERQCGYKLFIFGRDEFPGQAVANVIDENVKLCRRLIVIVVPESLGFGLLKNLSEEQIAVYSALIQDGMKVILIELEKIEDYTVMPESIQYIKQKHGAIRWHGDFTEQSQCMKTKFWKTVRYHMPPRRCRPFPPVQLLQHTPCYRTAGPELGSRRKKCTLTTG
- Protocol summary: cell-based or functional assay
# output: bare number, implied unit M

For orientation, consider the following solved cases.
Binder: hz84C4-2.4 (antibody, human IgG4 S228P, kappa, V domains shown, Humanized, human IgG4 / kappa) VH: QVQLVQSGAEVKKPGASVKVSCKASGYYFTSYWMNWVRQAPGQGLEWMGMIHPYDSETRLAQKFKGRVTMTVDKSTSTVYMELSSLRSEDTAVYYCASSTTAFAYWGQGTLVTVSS VL: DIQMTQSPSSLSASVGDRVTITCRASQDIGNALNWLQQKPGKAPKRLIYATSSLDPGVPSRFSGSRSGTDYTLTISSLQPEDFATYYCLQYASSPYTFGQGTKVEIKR
Units symbol: M
IC50 (M); hIL36β; IL-8 production: 6.52e-11

Binder: hz84C4-2.5 (antibody, human IgG4 S228P, kappa, V domains shown, Humanized, human IgG4 / kappa) VH: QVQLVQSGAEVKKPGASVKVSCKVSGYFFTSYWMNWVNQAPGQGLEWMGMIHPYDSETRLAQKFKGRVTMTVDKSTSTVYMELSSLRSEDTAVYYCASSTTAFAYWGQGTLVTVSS VL: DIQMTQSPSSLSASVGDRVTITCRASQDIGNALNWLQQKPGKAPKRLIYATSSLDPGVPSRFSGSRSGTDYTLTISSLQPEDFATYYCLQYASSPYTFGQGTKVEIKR
Units symbol: M
IC50 (M); hIL36β; IL-8 production: 1.24e-11

Binder: hz84C4-1.4 (antibody, human IgG4 S228P, kappa, V domains shown, Humanized, human IgG4 / kappa) VH: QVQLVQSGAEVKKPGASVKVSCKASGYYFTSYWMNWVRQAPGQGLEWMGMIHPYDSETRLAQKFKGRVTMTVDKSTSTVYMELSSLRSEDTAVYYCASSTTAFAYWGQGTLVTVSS VL: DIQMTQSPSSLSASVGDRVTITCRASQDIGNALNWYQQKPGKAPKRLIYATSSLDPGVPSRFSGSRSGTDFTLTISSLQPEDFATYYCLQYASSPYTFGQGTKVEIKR
Units symbol: M
IC50 (M); hIL36β; IL-8 production: 3.48e-11

Binder: hz84C4-2.1 (antibody, human IgG4 S228P, kappa, V domains shown, Humanized, human IgG4 / kappa) VH: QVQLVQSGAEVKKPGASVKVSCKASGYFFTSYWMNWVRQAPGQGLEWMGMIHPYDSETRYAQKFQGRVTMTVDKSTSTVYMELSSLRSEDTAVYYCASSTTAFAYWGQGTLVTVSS VL: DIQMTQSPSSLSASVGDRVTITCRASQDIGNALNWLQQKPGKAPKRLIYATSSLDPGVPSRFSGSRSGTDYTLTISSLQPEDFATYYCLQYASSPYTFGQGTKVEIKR
Units symbol: M
IC50 (M); hIL36β; IL-8 production: 3.18e-11

Binder: hz84C4-1.1 (antibody, human IgG4 S228P, kappa, V domains shown, Humanized, human IgG4 / kappa) VH: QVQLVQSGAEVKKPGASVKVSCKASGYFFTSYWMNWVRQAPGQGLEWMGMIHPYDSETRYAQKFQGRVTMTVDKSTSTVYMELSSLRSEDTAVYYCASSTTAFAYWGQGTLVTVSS VL: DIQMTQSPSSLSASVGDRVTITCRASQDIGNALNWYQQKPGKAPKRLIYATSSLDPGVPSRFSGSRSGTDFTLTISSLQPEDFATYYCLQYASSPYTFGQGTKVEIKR
Units symbol: M
IC50 (M); hIL36β; IL-8 production: 2.27e-11

Exam item: Any idea what its IC50 (M); hIL36β; IL-8 production is? The binder is hz84C4-2.2 (antibody, human IgG4 S228P, kappa, V domains shown, Humanized, human IgG4 / kappa) VH: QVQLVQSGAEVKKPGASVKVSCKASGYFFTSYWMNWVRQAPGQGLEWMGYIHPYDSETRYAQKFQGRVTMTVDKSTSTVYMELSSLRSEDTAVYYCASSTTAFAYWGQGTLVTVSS VL: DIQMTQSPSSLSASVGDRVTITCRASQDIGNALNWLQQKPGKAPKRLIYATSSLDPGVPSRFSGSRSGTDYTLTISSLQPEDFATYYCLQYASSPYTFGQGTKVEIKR
Marked response: 4.64e-11

Exam item: Any idea what its IC50 (M); hIL36β; IL-8 production is? The binder is hz84C4-1.2 (antibody, human IgG4 S228P, kappa, V domains shown, Humanized, human IgG4 / kappa) VH: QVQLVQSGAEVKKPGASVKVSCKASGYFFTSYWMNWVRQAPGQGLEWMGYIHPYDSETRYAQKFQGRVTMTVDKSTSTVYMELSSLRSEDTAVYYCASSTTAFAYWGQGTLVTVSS VL: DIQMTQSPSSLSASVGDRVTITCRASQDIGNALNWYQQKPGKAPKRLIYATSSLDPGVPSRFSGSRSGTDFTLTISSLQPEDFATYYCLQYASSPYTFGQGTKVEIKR
Marked response: 9.53e-12

Exam item: Any idea what its IC50 (M); hIL36β; IL-8 production is? The binder is hz84C4-1.5 (antibody, human IgG4 S228P, kappa, V domains shown, Humanized, human IgG4 / kappa) VH: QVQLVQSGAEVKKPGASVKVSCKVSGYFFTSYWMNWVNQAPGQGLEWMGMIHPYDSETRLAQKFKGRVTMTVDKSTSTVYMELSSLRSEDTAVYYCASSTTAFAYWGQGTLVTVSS VL: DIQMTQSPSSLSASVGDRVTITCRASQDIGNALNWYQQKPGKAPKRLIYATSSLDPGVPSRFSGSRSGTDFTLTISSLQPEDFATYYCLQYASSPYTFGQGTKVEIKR
Marked response: 1.55e-11

Source listed as patent US20240270857A1.
